Target: UGT1A9 (Homo sapiens, UniProt O60656)
Sequence (O60656 26-530): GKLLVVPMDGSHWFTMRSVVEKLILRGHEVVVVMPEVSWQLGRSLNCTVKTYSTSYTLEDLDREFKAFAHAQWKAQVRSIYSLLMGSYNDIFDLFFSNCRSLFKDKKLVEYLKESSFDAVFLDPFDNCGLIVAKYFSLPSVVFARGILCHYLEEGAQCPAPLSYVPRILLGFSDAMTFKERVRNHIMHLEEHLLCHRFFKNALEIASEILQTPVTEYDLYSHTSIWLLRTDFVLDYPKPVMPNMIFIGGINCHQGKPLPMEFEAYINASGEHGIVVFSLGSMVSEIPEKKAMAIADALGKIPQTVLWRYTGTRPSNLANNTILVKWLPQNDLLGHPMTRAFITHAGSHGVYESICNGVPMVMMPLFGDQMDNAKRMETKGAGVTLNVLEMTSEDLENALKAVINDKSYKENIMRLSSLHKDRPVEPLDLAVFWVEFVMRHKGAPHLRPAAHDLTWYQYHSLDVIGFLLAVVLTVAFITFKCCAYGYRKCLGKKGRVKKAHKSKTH
Assay: Kinetic profiling of glucuronidation by expressed human UGT1A9
Conditions: log of experimental CLint (μl/mg/min)
Exercise: state measured Log (CLint) (Actual) for each of the compounds provided.
Give bare numbers.

Use the examples below as a reference point.
O=c1c(O)c(-c2ccc(O)c(O)c2)oc2cc(O)cc(O)c12 :: 3.97
CCN(CC)C(=O)/C(C#N)=C/c1cc(O)c(O)c([N+](=O)[O-])c1 [compound 140, Entacapone, reference compound] :: 4.01

Could you share which Log (CLint) (Actual) value was measured for O=c1c(O)c(-c2ccccc2)oc2cc(O)cc(O)c12 ? 4.04
